- SUBJECT_OF_TEST: Serotonin 2 (5-HT2) receptor (Rattus norvegicus, UniProt P30994+P08909+P14842)
- METHOD_SUMMARY: Ability to inhibit binding of titreated spiperone to the 5-hydroxytryptamine 2 receptor in rat brain frontal cortex membranes
- Format: cell membranes, Membrane
Reported values of IC50 for individual entries
Write it as a number; the unit µM goes unstated.

Below: 3 compounds and their reported IC50.
CCCN(CCC)C1Cc2c[nH]c3ccc(OC)c(c23)C1 (centres undefined)	1.179
COc1ccc2[nH]cc3c2c1CC(N(C)C)C3 (centres undefined)	1.756
CCCN(CCC)C1Cc2c[nH]c3ccc(C(N)=O)c(c23)C1 (centres undefined)	4.817

Could you now look at the following compound, please?
# value lookup — system Serotonin 2 (5-HT2) receptor (Rattus norvegicus, UniProt P30994+P08909+P14842), readout IC50, item CN(C)C1Cc2c[nH]c3ccc(C(N)=O)c(c23)C1 (centres undefined)
5.44

###

- SUBJECT_OF_TEST: Serotonin 1 (5-HT1) receptor (Rattus norvegicus, UniProt P28564+P30940+P19327+P28565)
- METHOD_SUMMARY: Ability to inhibit binding of titreated serotonin to the 5-hydroxytryptamine 1 receptor in rat brain frontal cortex membranes
- Format: cell membranes, Membrane
MEASURED_ATTRIBUTE: IC50 (nM)
The response must be a number in nM with no trailing unit.

CCCN(CCC)C1Cc2c[nH]c3ccc(C(N)=O)c(c23)C1 (configuration not stated)	83
COc1ccc2[nH]cc3c2c1CC(N(C)C)C3 (configuration not stated)	96
CCCN(CCC)C1Cc2c[nH]c3ccc(Br)c(c23)C1 (configuration not stated)	241

Next, consider the following compound.
Record CCCN(CCC)C1Cc2c[nH]c3ccc(OC)c(c23)C1 (configuration not stated) : what is its IC50 with Serotonin 1 (5-HT1) receptor (Rattus norvegicus, UniProt P28564+P30940+P19327+P28565)?
36

###

- SUBJECT_OF_TEST: Serotonin 1 (5-HT1) receptor (Rattus norvegicus, UniProt P28564+P30940+P19327+P28565)
- METHOD_SUMMARY: Ability to inhibit binding of titreated serotonin to the 5-hydroxytryptamine 1 receptor in rat brain frontal cortex membranes
- Assay type: cell membranes, Membrane
Each entry below carries its reported IC50.
Value expressed in nM; do not type the unit.

Below are worked cases with known answers.
CCCN(CCC)C1Cc2cccc3[nH]cc(c23)C1 (stereo not drawn)	141
CCCN(CCC)C1Cc2c[nH]c3ccc(C#N)c(c23)C1 (stereo not drawn)	90

Now examine the next entry.
What does the record list as IC50 for CN(C)C1Cc2c[nH]c3ccc(C(N)=O)c(c23)C1 (stereo not drawn) ?
390
